Exercise: state measured T/C for each of the molecules provided.
Test system: P388 leukemia ip, CD2F1 mice, survival T/C
TEST PROTOCOL: NCI In Vivo Anticancer Drug Screen. Data for tumor model P388 Leukemia (intraperitoneal) in CD2F1 (CDF1) mice
TEST PARAMETERS: endpoint: median survival time; dose: 120.0 mg/kg/injection; schedule: Q01DX005 (ip); vehicle: saline; higher = longer survival
Toxic doses and inconclusive results are not listed.

Lab note: measured T/C of CCC1COc2nc(=O)c(C=NCCCN(C)C)c(N)n21 (stereo unspecified) was 105 % of control

Lab note: measured T/C of CCC1C(=O)CC(C(=O)O)C1C(=O)O (stereo unspecified) was 95 % of control

Lab note: measured T/C of `O=C1NC(=O)C(=C2C(=O)COC2=O)C(=O)N1` was 106 % of control

Lab note: measured T/C of `CCCN1CC=CCC1` was 100 % of control

Lab note: measured T/C of COc1nc(NC2OC(CO)C(O)C(O)C2O)c(/C=N/O)c(=O)n1C (stereo unspecified) was 103 % of control

Lab note: measured T/C of O=C1C2C3CCC(O3)C2C(=O)N1CCO (stereo unspecified) was 89 % of control

Lab note: measured T/C of CC(C)C1=CC2C3C(=O)NC(=O)C3C1C1C3C(=O)NC(=O)C3C21 (stereo unspecified) was 100 % of control

Lab note: measured T/C of COC(=O)C1CO[C@@H](C(C)(C)C)N1C=O (stereo partly specified) was 110 % of control

Lab note: measured T/C of `CN(C)NC=O` was 102 % of control

Lab note: measured T/C of `Cc1nc2c([N+](=O)[O-])cc(C(=O)O)cc2[nH]1` was 97 % of control

Lab note: measured T/C of `O=C(NCCO)Nc1ccc2c(c1)OCCOCCOCCOCCO2` was 99 % of control

Lab note: measured T/C of `CC(=O)Cc1cc(-c2cc(CC(C)=O)nc(N)n2)nc(N)n1` was 96 % of control

Lab note: measured T/C of `CCOC(=O)C1=C(C(C)=O)C(c2ccc(OC)c(OC)c2)C(C(C)=O)=C(C(=O)OCC)N1` was 100 % of control

Lab note: measured T/C of `Cc1ccn(C)n1` was 93 % of control

Lab note: measured T/C of `Nc1cc(N)n(C2=NCCN2)n1` was 104 % of control

Lab note: measured T/C of C=CCC1C=CC=CN1C(=O)OCC (stereo unspecified) was 113 % of control

Lab note: measured T/C of `O=C(NO)/C(CC(=O)c1ccccc1O)=N\O` was 111 % of control

Lab note: measured T/C of `CO[C@H]1C[C@H]2CC[C@@]1(C)C2(C)C` was 104 % of control

Lab note: measured T/C of `Cn1cc2c(=O)n(C)ncc2n1` was 109 % of control

Lab note: measured T/C of `CC/C(=N/N(C)C)C(=O)OC(C)(C)C` was 93 % of control

Lab note: measured T/C of COC(=O)C(CS[C@@H]1CCCC[C@H]1O)NC(C)=O (stereo partly specified) was 96 % of control

Lab note: measured T/C of OC1COC(Sc2ncc[nH]2)C(O)C1O (stereo unspecified) was 97 % of control

Lab note: measured T/C of `[CH3][Sn]([CH3])([S]CCS(=O)(=O)O)[S]CCS(=O)(=O)O` was 121 % of control

Lab note: measured T/C of O=S(=O)(O)CC(O)CNC(CO)(CO)CO (stereo unspecified) was 98 % of control

Lab note: measured T/C of `CC1(C)C2CC[C@@]1(CS(=O)(=O)N(CCCl)CCCl)C(=O)C2` was 96 % of control

Lab note: measured T/C of `O=c1c(N=Nc2nc3ccc([N+](=O)[O-])cc3s2)c(O)n(-c2ccccc2)c(=S)n1-c1ccccc1` was 96 % of control
